Source of measurements: patent EP4671246A1

Catalogue of IC50 readings, one per entry.
# TARGET: NLRP3 inflammasome (Homo sapiens)
# Sequence (Q96P20 whole entry): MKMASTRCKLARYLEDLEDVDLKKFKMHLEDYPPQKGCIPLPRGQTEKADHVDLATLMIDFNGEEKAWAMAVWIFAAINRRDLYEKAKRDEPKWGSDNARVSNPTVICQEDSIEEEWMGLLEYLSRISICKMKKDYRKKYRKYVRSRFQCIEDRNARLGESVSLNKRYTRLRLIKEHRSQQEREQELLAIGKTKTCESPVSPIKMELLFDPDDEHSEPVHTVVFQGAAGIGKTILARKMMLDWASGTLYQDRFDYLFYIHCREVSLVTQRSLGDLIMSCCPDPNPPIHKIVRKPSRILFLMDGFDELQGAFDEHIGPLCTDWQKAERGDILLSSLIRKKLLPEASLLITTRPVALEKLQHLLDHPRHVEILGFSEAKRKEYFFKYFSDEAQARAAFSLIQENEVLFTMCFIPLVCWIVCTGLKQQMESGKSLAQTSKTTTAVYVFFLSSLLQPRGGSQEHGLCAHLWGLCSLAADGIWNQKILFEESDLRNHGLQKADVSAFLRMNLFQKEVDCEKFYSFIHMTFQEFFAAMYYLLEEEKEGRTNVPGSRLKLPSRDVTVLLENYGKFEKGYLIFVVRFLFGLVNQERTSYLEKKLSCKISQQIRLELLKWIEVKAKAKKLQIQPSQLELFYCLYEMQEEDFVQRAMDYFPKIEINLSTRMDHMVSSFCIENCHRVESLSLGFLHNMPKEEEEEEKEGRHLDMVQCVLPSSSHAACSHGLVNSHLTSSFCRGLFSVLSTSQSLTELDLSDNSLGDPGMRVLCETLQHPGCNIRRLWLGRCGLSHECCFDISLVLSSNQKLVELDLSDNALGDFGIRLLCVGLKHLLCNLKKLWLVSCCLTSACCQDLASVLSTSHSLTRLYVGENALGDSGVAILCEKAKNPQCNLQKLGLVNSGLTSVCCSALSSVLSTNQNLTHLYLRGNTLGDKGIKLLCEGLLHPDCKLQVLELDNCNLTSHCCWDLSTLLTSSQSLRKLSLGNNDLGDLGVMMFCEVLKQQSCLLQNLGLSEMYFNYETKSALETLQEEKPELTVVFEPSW
# PROTOCOL DETAILS: Evaluation of NLRP3 inflammasome inhibitory activity (inhibition of IL-1β production in THP1-Null cells)
# CONDITION DESCRIPTION: 0.5 µmol/L PMA overnight, 1 µg/mL Lipopolysaccharides 3 hours, Nigericin 7.5 µmol/L 1.5 hours, AlphaLISA Human IL-1β

SAMPLE SMILES	TARGET	IC50
Cc1cc(Br)cc(C)c1-n1cc2c(=O)[nH]c(OC3CCS(=O)(=O)CC3)nc2n1	NLRP3 inflammasome (Homo sapiens)	43 nM
Cc1cc(Br)cc(C)c1-n1cc2c(=O)[nH]c(OCCCCO)nc2n1	NLRP3 inflammasome (Homo sapiens)	14 nM
Cc1cc(Br)cc(C)c1-n1cc2c(=O)[nH]c(OCCCS(=O)(=O)C(C)(C)C)nc2n1	NLRP3 inflammasome (Homo sapiens)	7 nM
Cc1cc(Br)cc(C)c1-n1cc2c(=O)[nH]c(O[C@H]3CCOC3)nc2n1	NLRP3 inflammasome (Homo sapiens)	13 nM
COc1nc2nn(-c3ccc(Cl)cc3CC3CC3)cc2c(=O)[nH]1	NLRP3 inflammasome (Homo sapiens)	70 nM
COCc1cc(OC)cc(C)c1-n1cc2c(=O)[nH]c(OC)nc2n1	NLRP3 inflammasome (Homo sapiens)	230 nM
COc1nc2nn(-c3ccc(C4CC4)cc3C(F)F)cc2c(=O)[nH]1	NLRP3 inflammasome (Homo sapiens)	16 nM
COc1nc2nn(-c3ccc(C)cc3C)cc2c(=O)[nH]1	NLRP3 inflammasome (Homo sapiens)	79 nM
Cc1cc(C2CC2)cc(C)c1-n1cc2c(=O)[nH]c(OCCCS(=O)(=O)C(C)(C)C)nc2n1	NLRP3 inflammasome (Homo sapiens)	3 nM
COc1nc2nn(-c3c(C)cc(C4CC4)cc3Cl)cc2c(=O)[nH]1	NLRP3 inflammasome (Homo sapiens)	8 nM
CCc1cc(OC)cc(C)c1-n1cc2c(=O)[nH]c(OC)nc2n1	NLRP3 inflammasome (Homo sapiens)	49 nM
COc1nc2nn(-c3c(C)cc(Br)cc3OC(F)F)cc2c(=O)[nH]1	NLRP3 inflammasome (Homo sapiens)	13 nM
CCc1cc(C(C)(F)F)cc(C)c1-n1cc2c(=O)[nH]c(OC)nc2n1	NLRP3 inflammasome (Homo sapiens)	24 nM
COCc1cc(C2CC2)ccc1-n1cc2c(=O)[nH]c(OC)nc2n1	NLRP3 inflammasome (Homo sapiens)	63 nM
Cc1cc(Br)cc(C)c1-n1cc2c(=O)[nH]c(OCC3(C#N)CC3)nc2n1	NLRP3 inflammasome (Homo sapiens)	73 nM
COc1nc2nn(-c3c(C)cc(C4CC4)cc3OC(F)F)cc2c(=O)[nH]1	NLRP3 inflammasome (Homo sapiens)	14 nM
Cc1cc(C2CC2)cc(C)c1-n1cc2c(=O)[nH]c(OCC(F)F)nc2n1	NLRP3 inflammasome (Homo sapiens)	25 nM
COCc1cc(Br)ccc1-n1cc2c(=O)[nH]c(OC)nc2n1	NLRP3 inflammasome (Homo sapiens)	70 nM

###

# TARGET: NLRP3 inflammasome (Homo sapiens)
# PROTOCOL DETAILS: Evaluation of NLRP3 inflammasome inhibitory activity (inhibition of IL-1β production in THP1-Null cells)
# CONDITION DESCRIPTION: 0.5 µmol/L PMA overnight, 1 µg/mL Lipopolysaccharides 3 hours, Nigericin 7.5 µmol/L 1.5 hours, AlphaLISA Human IL-1β

MOLECULE	IC50, nM
COc1nc2nn(-c3c(C)cc(C(F)(F)F)cc3C)cc2c(=O)[nH]1 [Example 22]	43
Cc1cc(Br)cc(C)c1-n1cc2c(=O)[nH]c(OC3CCOCC3)nc2n1 [Example 16]	25
Cc1cc(Br)cc(C)c1-n1cc2c(=O)[nH]c(OCCCS(=O)(=O)C(C)C)nc2n1 [Example 58]	6
CCOc1nc2nn(-c3c(C)cc(Br)cc3C)cc2c(=O)[nH]1 [Example 34]	12
Cc1cc(Br)cc(C)c1-n1cc2c(=O)[nH]c(OCCC(C)(C)C#N)nc2n1 [Example 109]	67
COc1nc2nn(-c3ccc(Br)cc3C(C)C)cc2c(=O)[nH]1 [Example 81]	58
COc1nc2nn(-c3c(C)cc(C)cc3C)cc2c(=O)[nH]1 [Example 8]	37
CCOc1nc2nn(-c3c(C)cc(OC(F)F)cc3C)cc2c(=O)[nH]1 [Example 54]	13
COc1nc2nn(-c3c(C)cc(C(F)F)cc3C)cc2c(=O)[nH]1 [Example 65]	140
Cc1cc(Br)cc(C)c1-n1cc2c(=O)[nH]c(OCCC3COC3)nc2n1 [Example 30]	51
